Reported Activity values for a set of molecules
Test system: PANC-1
assay.info: Cell cycle arrest in human PANC1 cells assessed as accumulation at S phase at 100 nM after 24 hrs by flow cytometry
Format: functional
Give your result in % as a bare value.

Use these answered entries as a reference point.
molecule	unit.spec	meas.value
C=C/C=C\[C@H](C)[C@@H]1OC(=O)/C=C\C=C\[C@@H](C)[C@@H](O)C[C@H](O)/C=C\[C@H](C)[C@H](O)[C@@H](C)C[C@@H](C)CC[C@@H](O)[C@@H]1C [DICTYOSTATIN]	%	14
C=C/C=C\[C@H](C)[C@@H]1OC(=O)/C=C\C=C\C[C@@H](O)C[C@H](O)/C=C\[C@H](C)[C@H](O)[C@@H](C)C[C@@H](C)CC[C@@H](O)[C@@H]1C	%	17

# Activity of C=C/C=C\[C@H](C)[C@@H]1OC(=O)CCCC[C@@H](C)[C@@H](O)C[C@H](O)/C=C\[C@H](C)[C@H](O)[C@@H](C)C[C@@H](C)CC[C@@H](O)[C@@H]1C = 9

# Activity of C=C/C=C\[C@H](C)[C@@H]1OC(=O)CC/C=C/[C@@H](C)[C@@H](O)C[C@H](O)/C=C\[C@H](C)[C@H](O)[C@@H](C)C[C@@H](C)CC[C@@H](O)[C@@H]1C = 17

====

System: ASPC1
assay.info: Growth inhibition of human AsPC1 cells after 72 hrs by MTT assay
Type: functional, cell-based
condition.context: ASPC1, 72 h
property.name: IC50 (µM)
Give your result in µM as a bare value.

sample.smiles	property.name	unit.spec	meas.value
C=C/C=C\[C@H](C)[C@H](O)[C@@H](C)[C@H]1CC[C@H](C)C[C@H](C)[C@@H](O)[C@@H](C)/C=C\[C@@H](O)C[C@H](O)[C@H](C)CCCCC(=O)O1	IC50	µM	4.9

The record that follows has no IC50 shown yet.
# IC50 of C=C/C=C\[C@H](C)[C@H](O)[C@@H](C)[C@H]1CC[C@H](C)C[C@H](C)[C@@H](O)[C@@H](C)/C=C\[C@@H](O)C[C@H](O)[C@H](C)/C=C/CCC(=O)O1 = 3.1
